Target: Left-right determination factor 2 (Homo sapiens)
Assay: small molecules binding LEFTY2 protein – biochemical, small-molecule microarray, 635 nm fluorescence scan, primary screen (AID 1110)
Conditions: higher = more signal
composite z-score vs 0.2: at or above is y, below is n.

Asked: Reported composite z-score at or above 0.2? CCCC[C@@H]1C[C@H]1[C@@H](NC(=O)c1cccs1)c1ccccc1C(F)(F)F
Given back: n

Asked: Reported composite z-score at or above 0.2? CC(C)[Si]1(C(C)C)OCc2cc(C3CC3)nc(-c3ccc(Oc4ccccc4)cc3)c21
Given back: n

Asked: Reported composite z-score at or above 0.2? O=C1[C@H]2C=C(I)[C@H](C[C@@H]2OCCOCCO)[C@@]12CO2
Given back: y

Asked: Reported composite z-score at or above 0.2? CCOC(=O)C[C@H]1[C@H](OC(=O)c2ccccc2-c2ccccc2)[C@@H](NC(=O)c2ccc3ccccc3n2)c2cc(OCCCO)ccc2N1C(=O)Cc1ccc(OC)cc1
Given back: y

Asked: Reported composite z-score at or above 0.2? COc1cc(NN2C(C(O)c3ccc(N(C)C)cc3)C=CC3C(=O)N(c4ccccc4)C(=O)C32)cc(OC)c1OC (configuration not stated)
Given back: n

Asked: Reported composite z-score at or above 0.2? C=CCNC(=O)[C@H]1[C@@H]2C(=O)O[C@@H](c3ccccc3)[C@@H](c3ccccc3)N2[C@@H](c2ccccc2OCCO)[C@]12C(=O)N(C(=O)OCCOC)c1ccc(C#CC3(O)CCCCCC3)cc12
Given back: y

Asked: Reported composite z-score at or above 0.2? COc1ccc([Si](C)(C)[C@@H]2[C@@H](CCO)O[C@]3(C(=O)N(Cc4ccccc4)c4ccc(N5CCOC5=O)cc43)[C@H]2C)cc1
Given back: y
